- procedure-summary: recombinant barcode read abundance after kanamycin selection (control-corrected) (log10(CPM+1)); higher = more efficient recombination; sequences stand for … in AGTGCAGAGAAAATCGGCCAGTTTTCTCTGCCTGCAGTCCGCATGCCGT…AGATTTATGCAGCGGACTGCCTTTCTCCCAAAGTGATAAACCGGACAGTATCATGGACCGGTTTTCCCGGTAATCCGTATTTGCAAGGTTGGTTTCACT; site = the 11-nt target;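 further: IS621 recombinase and bridge RNA in Escherichia coli cells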
Binned recombinant barcode read abundance (log10); ranges: low bracket: < 0.09; middle bracket: ≥ 0.09 and < 0.5; high bracket: ≥ 0.5

For orientation, consider the following solved cases.
[
  {
    "monomer-sequence": "ATCGTACCTTGGGTTCTAACCTGTTGCTA (site ATCGTACCTTA)",
    "class-assignment": "middle bracket"
  },
  {
    "monomer-sequence": "ACTAGAGCTTGGGTTCTAACCTGTTGCCT (site ACCAGAGCTAG)",
    "class-assignment": "middle bracket"
  },
  {
    "monomer-sequence": "CCACTTCCTTGGGTTCTAACCTGTTGCCT (site CCACTTCCTAG)",
    "class-assignment": "middle bracket"
  },
  {
    "monomer-sequence": "TTACCCACTTGGGTTCTAACCTGTTGCCT (site TTACCAACTAG)",
    "class-assignment": "low bracket"
  },
  {
    "monomer-sequence": "TCGATCCCTTGGGTTCTAACCTGTTGCCT (site TCGATCCCTAG)",
    "class-assignment": "high bracket"
  }
]

Now turn to the next sequence.
q: Entry CACGAGGCTTGGGTTCTAACCTGTTGCCT (site CACGAGACTAG) belongs to which category?
a: high bracket
